Provenance of the data: ChEMBL document CHEMBL1156067

experiment_notes: Plasma concentration in Sprague-Dawley rat at 10 mg/kg, po after 4 hrs
Format: ADME, organism-based
Parameters: dose 10 mg/kg, route oral
property_name: concentration at 4 h (ng/mL)
Answers are plain numbers, in ng/mL.

| query_smiles | concentration at 4 h / ng/mL |
| --- | --- |
| Cc1cnc(N[C@H]2CC[C@@H](CNC(=O)c3cc(C(F)(F)F)cc(C(F)(F)F)c3)CC2)nc1N(C)C | 63 |

Lookup: Fill in the blank: the reported concentration at 4 h of `CN(C)c1nc(N[C@H]2CC[C@@H](NC(=O)c3ccc(F)c(F)c3)CC2)nc2ccccc12` is ____.
Found: 101
